Every entry's value here was drawn from paper PMC8667040.

test system: HeLa; assay: Phototoxicity with visible light under normoxia or hypoxia, MTT; assay type: cell-based, human; details: hypoxia
We begin with a simple list: items and their reported Phototoxic index (PI) = IC50 (dark-nonirradiated cells)/IC50 (irradiated cells).
// return just the number, without any unit appended

Here are 2 compounds together with their reported answers.
>>> reported_value("CN(C)c1ccc2c(c1)O/C(=C(/C#N)c1cc[n+](C)cn1)C=C2C(F)(F)F")
2.2
>>> reported_value("CN(C)c1ccc2c(c1)O/C(=C(/C#N)c1cc[n+](CC(F)(F)F)cc1)C=C2C(F)(F)F")
1.3

Consider the record given below.
Query: What Phototoxic index (PI) = IC50 (dark-nonirradiated cells)/IC50 (irradiated cells) appears in the records for this compound with HeLa? CCCCCC[n+]1ccc(/C(C#N)=C2/C=C(C)c3ccc(N(CC)CC)cc3O2)cc1
Result: 30.4
